Target: T1, FPR1 (UniProt P21462 1-350, limits assumed)
T1 sequence (looked up): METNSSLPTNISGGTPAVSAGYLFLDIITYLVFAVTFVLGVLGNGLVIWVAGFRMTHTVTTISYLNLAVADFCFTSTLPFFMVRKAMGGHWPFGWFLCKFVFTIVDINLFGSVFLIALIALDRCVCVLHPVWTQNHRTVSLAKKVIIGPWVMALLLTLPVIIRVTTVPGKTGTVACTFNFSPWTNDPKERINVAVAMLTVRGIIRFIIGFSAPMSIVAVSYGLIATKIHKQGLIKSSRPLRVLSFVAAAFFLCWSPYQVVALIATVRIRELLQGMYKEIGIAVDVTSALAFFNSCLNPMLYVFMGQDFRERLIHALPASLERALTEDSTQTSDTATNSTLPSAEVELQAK
Assay: cell-based or functional assay
Listed binders paired with reported EC50 for [Ca2+]

Look over these answered cases.
[
  {
    "BINDER": "MRYKYM (HELM PEPTIDE1{M.R.Y.K.Y.[dM].[am]}$$$$V2.0; N-terminus assumed; SMILES CSCC[C@H](N)C(=O)N[C@@H](CCCNC(=N)N)C(=O)N[C@@H](Cc1ccc(O)cc1)C(=O)N[C@@H](CCCCN)C(=O)N[C@@H](Cc1ccc(O)cc1)C(=O)N[C@H](CCSC)C(N)=O) [peptide of SEQ ID NO 41]",
    "READING": "> 10 µM"
  },
  {
    "BINDER": "RWRYYYM (HELM PEPTIDE1{R.W.R.Y.Y.Y.[dM].[am]}$$$$V2.0; N-terminus assumed; SMILES CSCC[C@@H](NC(=O)[C@H](Cc1ccc(O)cc1)NC(=O)[C@H](Cc1ccc(O)cc1)NC(=O)[C@H](Cc1ccc(O)cc1)NC(=O)[C@H](CCCNC(=N)N)NC(=O)[C@H](Cc1c[nH]c2ccccc12)NC(=O)[C@@H](N)CCCNC(=N)N)C(N)=O) [peptide of SEQ ID NO 123]",
    "READING": "> 10 µM"
  }
]

# ---- query binder ----
[in] Quick one: give measured EC50 for [Ca2+] for HMRYKYM (HELM PEPTIDE1{[CCCC(=O)[*:2]].H.M.R.Y.K.Y.[dM].[am]}$$$$V2.0; SMILES CCCC(=O)N[C@@H](Cc1c[nH]cn1)C(=O)N[C@@H](CCSC)C(=O)N[C@@H](CCCNC(=N)N)C(=O)N[C@@H](Cc1ccc(O)cc1)C(=O)N[C@@H](CCCCN)C(=O)N[C@@H](Cc1ccc(O)cc1)C(=O)N[C@H](CCSC)C(N)=O) [peptide of SEQ ID NO 45]
[out] > 10 µM
